Target: T1, human transglutaminase type 2 (TG2) (human, UniProt P21980 1-687)
T1 sequence: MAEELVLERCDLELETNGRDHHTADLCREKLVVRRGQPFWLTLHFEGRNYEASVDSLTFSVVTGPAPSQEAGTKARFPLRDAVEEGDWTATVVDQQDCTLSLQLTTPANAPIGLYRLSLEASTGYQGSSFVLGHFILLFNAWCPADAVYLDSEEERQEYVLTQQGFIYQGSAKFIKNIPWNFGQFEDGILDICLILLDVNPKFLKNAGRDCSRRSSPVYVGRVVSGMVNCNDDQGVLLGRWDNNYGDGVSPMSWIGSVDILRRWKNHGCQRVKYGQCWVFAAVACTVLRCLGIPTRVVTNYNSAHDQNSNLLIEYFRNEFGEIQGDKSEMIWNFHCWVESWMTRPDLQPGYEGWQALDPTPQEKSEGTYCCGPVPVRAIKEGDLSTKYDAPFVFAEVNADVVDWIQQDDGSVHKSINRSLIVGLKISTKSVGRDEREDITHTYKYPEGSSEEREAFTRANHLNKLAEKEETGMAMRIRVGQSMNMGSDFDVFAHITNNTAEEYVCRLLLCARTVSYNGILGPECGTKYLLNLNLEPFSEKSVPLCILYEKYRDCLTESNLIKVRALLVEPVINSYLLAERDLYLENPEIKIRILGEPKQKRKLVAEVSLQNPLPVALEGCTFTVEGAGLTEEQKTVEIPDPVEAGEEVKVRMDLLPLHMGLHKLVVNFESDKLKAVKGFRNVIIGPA
Assay: cell-based or functional assay
metric-name: IC50 of TG2 activity, 3H putrescine incorporation (mg/ml IgG per ng TG2)
The reply should contain only the number, in mg/ml IgG per ng TG2.

Q) What does the record list as IC50 of TG2 activity, 3H putrescine incorporation for AB1 murine monoclonal antibody (antibody, V domains shown, Mouse hybridoma IgG; heavy chain amplified with constant region primer MHCG1, kappa light chain; also called mAB003) VH: EVQLVESGGGLVKPGGSLKLSCAASGFTLSSSAMSWVRQTPDRRLEWVATISVGGGKTYYPDSVKGRFTISRDNAKNTLYLQMNSLRSEDTAMYYCAKLISLYWGQGTTLTVSS VL: DIKMTQSPSSMYASLGERVTITCKASQDINSYLTWFQQKPGKSPKTLIYRTNRLFDGVPSRFSGSGSGQDFFLTISSLEYEDMGIYYCLQYDDFPYTFGGGTKLEIK ?
A) 1.09e-05

Q) What does the record list as IC50 of TG2 activity, 3H putrescine incorporation for BB7 murine monoclonal antibody (antibody, V domains shown, Mouse hybridoma IgG; heavy chain amplified with primer MHCG1, kappa light chain; also called mBB001) VH: AVQLVESGGGLVKPGGSLKLSCAASGIIFSSSAMSWVRQTPEKRLEWVATISSGGRSTYYPDSVKGRFTVSRDSAKNTLYLQMDSLRSEDTAIYYCAKLISPYWGQGTTLTVSS VL: AIKMTQSPSSMYASLGERVIITCKASQDINSYLTWFQQKPGKSPKTLIYLTNRLMDGVPSRFSGSGSGQEFLLTISGLEHEDMGIYYCLQYVDFPYTFGGGTKLEIK ?
A) 1.59e-05

Q) What does the record list as IC50 of TG2 activity, 3H putrescine incorporation for DC1 murine monoclonal antibody (antibody, V domains shown, Mouse hybridoma IgG; heavy chain amplified with primer MHCG1, kappa light chain; also called mDC001) VH: EVQLVESGGGLVKPGGSLKLSCAASGFTLSTHAMSWVRQTPEKRLEWVATISSGGRSTYYPDSVKGRFTISRDNVKNTLYLQLSSLRSEDTAVYFCARLISTYWGQGTTLTVSS VL: DITMTQSPSSIYASLGERVTITCKASQDINSYLTWFQQKPGKSPKILIYLVNRLVDGVPSRFSGSGSGQDYALTISSLEYEDMGIYYCLQYDDFPYTFGGGTKLEIK ?
A) 1.23e-05
